B1: MFF (parent)
chain: YTEGISQRMRVPEKLKVAPPNADL

- Variants of: B1
- TEST DETAILS: protein stability index of a GFP-peptide fusion (GPS, HEK-293T) (PSI 1-6); higher = more stable;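 note: lentivirally expressed fusions sorted by FACS into six bins by GFP to DsRed ratio, PSI derived from sequencing read proportions per bin multiplied by bin number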
- TEST CONDITIONS: c terminus: a fixed tail appended
So basically: protein stability index at 3 or higher? That is Yes. Lower than 3? That is No.

# example entries with known answers
MUTATION LABEL: A22E
CATEGORY LABEL: Yes
//
MUTATION LABEL: A18M
CATEGORY LABEL: No
//
MUTATION LABEL: I5V
CATEGORY LABEL: Yes

Please check the record "E3S" and state if its protein stability index is at or above 3.
No

Please check the record "P20T" and state if its protein stability index is at or above 3.
No

Please check the record "N21S" and state if its protein stability index is at or above 3.
Yes

Please check the record "Q7H" and state if its protein stability index is at or above 3.
No

Please check the record "M9L" and state if its protein stability index is at or above 3.
Yes

Please check the record "P20F" and state if its protein stability index is at or above 3.
No

Please check the record "S6D" and state if its protein stability index is at or above 3.
Yes

Please check the record "G4D" and state if its protein stability index is at or above 3.
Yes

Please check the record "P20Q" and state if its protein stability index is at or above 3.
Yes

Please check the record "Q7E" and state if its protein stability index is at or above 3.
Yes

Please check the record "N21Q" and state if its protein stability index is at or above 3.
No

Please check the record "I5N" and state if its protein stability index is at or above 3.
Yes

Please check the record "I5T" and state if its protein stability index is at or above 3.
Yes

Please check the record "L15K" and state if its protein stability index is at or above 3.
Yes

Please check the record "E13S" and state if its protein stability index is at or above 3.
Yes
